Assay: NCI Yeast Anticancer Drug Screen. Data for the mlh1 rad18 strain (AID 175)
Details: S. cerevisiae mlh1 rad18 strain growth inhibition; at 5.0 µM (retest, dose inferred, filed as 0.5); active compounds read high
About 79,000 compounds went through this panel and 15% of them were active in at least one assay; those are over-represented in the sample as a whole.
Give Satisfied when the value for growth inhibition is at least 20%. Give Not satisfied when it is less.

Completed entries (count: 4):
# Compound, Answer label
measured = [
    ("O=S(O)O.O=S(O)O.[Co].[NH2-].[NH2-].[NH2-].[NH2-]", "Not satisfied"),
    ("O=C(O)C(O)(c1ccc(-c2ccccc2)cc1)c1ccc(-c2ccccc2)cc1", "Not satisfied"),
    ("CC(=O)C(CN1CCOCC1)C(c1ccccc1)c1c(O)c2ccccc2oc1=O (centres undefined)", "Not satisfied"),
    ("CCC[CH2][Sn]([CH2]CCC)([N]=C=S)[N]=C=S", "Satisfied"),
]

Q: Reported growth inhibition at or above 20%? S=c1sc(-c2ccccc2)c[se]1
A: Not satisfied

Q: Reported growth inhibition at or above 20%? CC1CC[N-]C(C)C1.CN(C)C=O.[Cl][Pt][Cl] (centres undefined)
A: Satisfied

Q: Reported growth inhibition at or above 20%? OC1CC([CH2][Hg][I])OC([CH2][Hg][I])C1 (centres undefined)
A: Satisfied

Taken from PubChem BioAssay (NCI).
